These data points were gathered from PubChem BioAssay AID540368.

- Tested target: Sphingosine 1-phosphate receptor 1 (Homo sapiens)
- Procedure details: S1P1 receptor agonists, late-stage follow-up, selectivity assay for S1P3 agonist project, cell-based, fluorescence, dose response, set 3 (AID 540368)
- Condition info: run 1
Calls of active or inactive are those of the source. The rule behind the calls is not given here.
Write down the outcome that applies. Available outcomes: true (active), false (inactive)

Prompt: Please indicate how the test categorized O=C(c1cc(-c2ccccc2)on1)N(C1CCCCC1)C1CCCC1 .
Completion: true

Prompt: Please indicate how the test categorized CC1CCCCC1N(C(=O)c1cc(C2CC2)on1)C1CCCCC1C (configuration not stated) .
Completion: false

Prompt: Please indicate how the test categorized O=C(c1coc(C2CC2)n1)N(C1CCCCC1)C1CCCCC1 .
Completion: false

Prompt: Please indicate how the test categorized COc1ccc(-c2cc(C(=O)N(C3CCCCC3)C3CCCCC3)no2)cc1 .
Completion: true

Prompt: Please indicate how the test categorized CCCc1cc(C(=O)N(C2CCCCC2)C2CCCC2)no1 .
Completion: false

Prompt: Please indicate how the test categorized O=C(c1cc(C2CC2)on1)N(C1CCCCC1)C1CCCCC1 .
Completion: false

Prompt: Please indicate how the test categorized CCCc1cc(C(=O)N(C2CCCCC2)C2CCCCC2)no1 .
Completion: false

Prompt: Please indicate how the test categorized O=C(NC1CCCCC1)c1cc(C2CC2)on1 .
Completion: false

Prompt: Please indicate how the test categorized O=C(c1cc(C2CC2)on1)N(Cc1ccccc1)Cc1ccccc1 .
Completion: false

Prompt: Please indicate how the test categorized COc1ccc(N(Cc2ccccc2)C(=O)c2cc(C3CC3)on2)cc1 .
Completion: false

Prompt: Please indicate how the test categorized CC1CCCCC1N(C(=O)c1cc(C2CC2)on1)C1CCCC1 (configuration not stated) .
Completion: false

Prompt: Please indicate how the test categorized Cc1cc(C(=O)N(C2CCCCC2)C2CCCCC2)no1 .
Completion: false
